Recorded values, source PubChem BioAssay.

Answer each item with its documented composite z-score.
experiment: small molecules captured by biotinylated probe aFGF2 – biochemical, small-molecule microarray, fluorescence 635/667, stem cell growth factor project, primary screen (AID 1067); conditions: higher = more signal;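 note: measures binding of biotinylated aFGF2 protein to printed compounds on slides; z-score merges feature fluorescence and signal-to-noise across triplicate slides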
Could you keep your reply to the number by itself?

Query: Recall and state the measured composite z-score for O=C1O[C@H](c2ccccc2)[C@H](c2ccccc2)N2[C@H]1[C@@H](C(=O)N1CCN(c3ncccn3)CC1)[C@]1(C(=O)Nc3ccc(C#CCCO)cc31)[C@H]2c1ccc(O)cc1 .
Result: 0.0033

Query: Recall and state the measured composite z-score for C[N+](C)(C)CCCCNC(=O)[C@H]1C[C@H]2C(=O)N[C@@H](Cc3ccccc3)C(=O)N2[C@H]1c1cccc(OCCO)c1 .
Result: -0.0375

Query: Recall and state the measured composite z-score for C=CC[C@@]12N=C(c3ccc(OCCCO)cc3)O[C@@H]1c1ccccc1N(CCC)C2=O .
Result: 0.0528

Query: Recall and state the measured composite z-score for CCCCCC1=C2CNC(CC(C)C)(C(=O)OC)C=C2C(C)C1=O (configuration not stated) .
Result: 0.185

Query: Recall and state the measured composite z-score for CC(C)C[C@@H]1NC(=O)[C@@H]2C[C@H](C(=O)NCCCCCCNC(=O)CS)[C@H](c3cccc(OCCO)c3)N2C1=O .
Result: 0.0379

Query: Recall and state the measured composite z-score for C[N+](C)(C)CCCC[C@@H]1NC(=O)[C@@H]2C[C@H](C(=O)NCc3ccc(F)cc3)[C@H](c3ccc(O)cc3)N2C1=O .
Result: -0.148

Query: Recall and state the measured composite z-score for O=C1O[C@H](Cc2ccccc2)[C@@H]2[C@H]3C=CCCC=C3CN2[C@H]1Cc1ccc(O)cc1 .
Result: -0.0692
